The origin of these recorded values is patent US12662451B2.

I'd appreciate it if you could supply IC50 values for the items below.
Target: recombinant full-length WRN protein (1-1432) (Homo sapiens, UniProt Q14191)
Construct: recombinant full-length WRN protein (1-1432)
Sequence (Q14191 whole entry): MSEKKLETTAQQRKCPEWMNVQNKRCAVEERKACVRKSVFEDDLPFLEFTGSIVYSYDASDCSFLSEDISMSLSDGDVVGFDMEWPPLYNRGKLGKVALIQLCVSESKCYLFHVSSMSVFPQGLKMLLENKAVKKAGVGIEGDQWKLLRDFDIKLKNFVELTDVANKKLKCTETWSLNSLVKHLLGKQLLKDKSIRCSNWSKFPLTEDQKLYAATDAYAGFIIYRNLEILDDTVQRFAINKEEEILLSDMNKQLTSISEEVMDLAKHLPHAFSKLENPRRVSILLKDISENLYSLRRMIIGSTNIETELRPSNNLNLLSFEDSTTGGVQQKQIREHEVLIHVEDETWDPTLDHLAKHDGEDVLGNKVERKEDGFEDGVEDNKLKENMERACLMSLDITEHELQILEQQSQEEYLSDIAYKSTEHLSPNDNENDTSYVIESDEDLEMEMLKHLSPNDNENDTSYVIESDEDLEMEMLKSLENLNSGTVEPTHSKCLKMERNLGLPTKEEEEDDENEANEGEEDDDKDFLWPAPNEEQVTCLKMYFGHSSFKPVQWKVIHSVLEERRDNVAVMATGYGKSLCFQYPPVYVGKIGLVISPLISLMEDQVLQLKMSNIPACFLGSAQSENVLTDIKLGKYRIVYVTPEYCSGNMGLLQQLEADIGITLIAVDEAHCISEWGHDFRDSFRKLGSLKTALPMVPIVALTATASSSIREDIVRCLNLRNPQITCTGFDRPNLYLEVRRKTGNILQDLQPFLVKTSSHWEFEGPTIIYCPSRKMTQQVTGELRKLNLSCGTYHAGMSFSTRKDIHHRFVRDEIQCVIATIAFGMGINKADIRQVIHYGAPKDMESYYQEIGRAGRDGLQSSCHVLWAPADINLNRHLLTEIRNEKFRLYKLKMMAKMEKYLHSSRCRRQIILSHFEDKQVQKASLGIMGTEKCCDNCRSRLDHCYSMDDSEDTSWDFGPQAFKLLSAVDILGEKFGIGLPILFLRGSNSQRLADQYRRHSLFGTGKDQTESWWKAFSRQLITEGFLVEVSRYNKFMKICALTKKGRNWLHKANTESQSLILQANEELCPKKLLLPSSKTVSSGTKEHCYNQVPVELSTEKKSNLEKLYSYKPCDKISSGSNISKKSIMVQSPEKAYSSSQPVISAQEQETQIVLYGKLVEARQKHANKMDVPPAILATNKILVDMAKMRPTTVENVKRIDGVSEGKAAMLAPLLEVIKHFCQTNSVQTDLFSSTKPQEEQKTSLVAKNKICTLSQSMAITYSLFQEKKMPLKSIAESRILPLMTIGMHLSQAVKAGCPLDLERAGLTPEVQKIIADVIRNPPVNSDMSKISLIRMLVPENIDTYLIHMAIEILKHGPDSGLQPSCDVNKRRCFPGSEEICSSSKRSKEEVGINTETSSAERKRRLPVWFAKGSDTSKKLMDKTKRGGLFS
Assay: WRN unwinding activity, fluorogenic 384-well assay (Example A)
Type: biochemical
Conditions: WRN unwinding activity, 4 hr; Table 2; read-out: 4 hr UNW pIC50 (converted)
Field: numeric (nM). Do not append units.

stdin: Endpoint output: IC50 of Cc1nc2cc(S(=O)(=O)N(C)c3ccc([C@H]4C[C@@H](OCC5COC5)C[C@@H](C(=O)Nc5ccc(C(F)(F)F)cc5F)[C@@H]4C(=O)O)cc3)ccc2n1C (relative stereo) [Example 282] . Value?
stdout: 1.58

stdin: Endpoint output: IC50 of Cc1nc2cc(S(=O)(=O)N(C)c3ccc([C@@H]4C[C@H](N5CCOCC5)C[C@H](C(=O)Nc5ccc(C(F)(F)F)cc5F)[C@H]4C(=O)O)cc3)ccc2n1C (relative stereo) [Example 338] . Value?
stdout: 79.4

stdin: Endpoint output: IC50 of Cc1nc2cc(S(=O)(=O)N(C)c3ccc([C@H]4C[C@H](N5CCC(F)(F)C5)C[C@@H](C(=O)Nc5ccc(C(F)(F)F)cc5F)[C@@H]4C(=O)O)cc3)ccc2n1C (stereo in doubt) [Example 304] . Value?
stdout: 15.8

###

Test system: SW48 human colorectal cancer cells
Assay: Calculated free drug potency in SW48 cell assay, corrected with media free fraction (Example C)
Assay type: cell-based
Settings: Homo sapiens, SW48, SW48 pCC50 corrected with measured free fraction in cell assay media
I'd appreciate it if you could supply CC50 values for the items below.
Field: numeric (nM). Do not append units.

stdin: Endpoint output: CC50 of Cc1nc2cc(S(=O)(=O)N(C)c3ccc([C@H]4C[C@@H](OC[C@H]5COCCO5)C[C@@H](C(=O)Nc5ccc(C(F)(F)F)cc5F)[C@@H]4C(=O)O)cc3)ccc2n1C (relative stereo) [Example 327] . Value?
stdout: 58.9

stdin: Endpoint output: CC50 of CN(c1ccc([C@H]2CCC[C@@H](C(=O)Nc3ccc(C(F)(F)F)cc3F)[C@@H]2C(=O)O)cc1)S(=O)(=O)c1cccc(C2CCNCC2)c1 [Example 261] . Value?
stdout: 309

stdin: Endpoint output: CC50 of CN1CCC[C@@H](c2cccc(S(=O)(=O)N(C)c3ccc([C@H]4CCC[C@@H](C(=O)Nc5ccc(C(F)(F)F)cc5F)[C@@H]4C(=O)O)cc3)c2)C1 [Example 116] . Value?
stdout: 145

stdin: Endpoint output: CC50 of Cc1nc2cc(S(=O)(=O)N(C)c3ccc([C@H]4C[C@@H](OC[C@H]5CCOC5)C[C@@H](C(=O)Nc5ccc(C(F)(F)F)cc5F)[C@@H]4C(=O)O)cc3)ccc2n1C (stereo in doubt) [Example 317] . Value?
stdout: 12

stdin: Endpoint output: CC50 of CN(c1ccc([C@H]2CCC[C@@H](C(=O)Nc3ccc(C(F)(F)F)cc3F)[C@@H]2C(=O)O)cc1)S(=O)(=O)c1ccc2c(ccn2C)c1 [Example 107] . Value?
stdout: 19.5

###

Biological target: recombinant full-length WRN protein (1-1432) (Homo sapiens, UniProt Q14191)
Construct: recombinant full-length WRN protein (1-1432)
Experiment: WRN unwinding activity, fluorogenic 384-well assay (Example A)
Assay type: biochemical
Conditions: WRN unwinding activity, 4 hr; Table 2; read-out: 4 hr UNW pIC50 (converted)
Structures can show the parent of a compound that is named as a salt.
quantity_measured: IC50 (nM)
Field: numeric (nM). Do not append units.

stdin: Endpoint output: IC50 of CN(c1ccc([C@H]2CCC[C@@H](C(=O)Nc3ccc(C(F)(F)F)cc3F)[C@@H]2C(=O)O)cc1)S(=O)(=O)c1ccc2c(c1)ncn2C (single isomer, unassigned) [Example 88] . Value?
stdout: 2.51

stdin: Endpoint output: IC50 of CCO[C@@H]1C[C@H](COc2ccc(C(F)(F)F)cc2)[C@@H](C(=O)O)[C@H](c2ccc(N(C)S(=O)(=O)c3ccc4c(c3)nc(C)n4C)cc2)C1 (single isomer, unassigned) . Value?
stdout: 316

stdin: Endpoint output: IC50 of CN(c1ccc([C@H]2CCC[C@@H](C(=O)Nc3ccc(C(F)(F)F)cc3F)[C@@H]2C(=O)O)cc1)S(=O)(=O)c1ccc2c(c1)CNCC2 [Example 260, hydrochloride] . Value?
stdout: 2

stdin: Endpoint output: IC50 of Cc1nc2cc(S(=O)(=O)N(C)c3ccc([C@H]4CCC[C@@H](C(=O)Nc5ccc(C(F)(F)F)cc5F)[C@@H]4C(=O)O)cc3)cc([C@H]3CCCN(C)C3)c2n1C (relative stereo) . Value?
stdout: 1.58

stdin: Endpoint output: IC50 of Cc1nc2cc(S(=O)(=O)N(C)c3ccc([C@H]4C[C@@H]5OCC[C@@H]5[C@@H](C(=O)Nc5ccc(C(F)(F)F)cc5F)[C@@H]4C(=O)O)cc3)ccc2n1C (single isomer, unassigned) [Example 158] . Value?
stdout: 31.6

stdin: Endpoint output: IC50 of Cc1nc2cc(S(=O)(=O)N(C)c3ccc([C@H]4C[C@@H](N5CCC(F)(F)CC5)C[C@@H](C(=O)Nc5ccc(C(F)(F)F)cc5F)[C@@H]4C(=O)O)cc3)ccc2n1C (stereo in doubt) . Value?
stdout: 5.01

stdin: Endpoint output: IC50 of N#Cc1cnnc(-c2ccc(C3CCCC(C(=O)Nc4ccc(C(F)(F)F)cc4F)[C@@H]3C(=O)O)cc2)c1 (stereo in doubt) . Value?
stdout: 2000

stdin: Endpoint output: IC50 of Cc1nc2cc(S(=O)(=O)N(C)c3ccc([C@@H]4CC(F)(F)C[C@H](C(=O)Nc5ccc(C(F)(F)F)cc5F)[C@H]4C(=O)O)cc3)ccc2n1C (single isomer, unassigned) . Value?
stdout: 631

stdin: Endpoint output: IC50 of "Cc1nc2cc(S(=O)(=O)N(C)c3ccc([C@H]4CCC[C@@H](C(=O)Nc5ccc(C(F)(F)F)cc5F)[C@@H]4C(=O)O)cc3)cc(Cl)c2n1C" . Value?
stdout: 20

stdin: Endpoint output: IC50 of Cc1nc2cc(S(=O)(=O)N(C)c3ccc([C@H]4CCC[C@@H](C(=O)Nc5ccc(C(C)C)cc5)[C@@H]4C(=O)O)cc3)ccc2n1C (single isomer, unassigned) [Example 79] . Value?
stdout: 501

stdin: Endpoint output: IC50 of Cc1nc2cc(S(=O)(=O)N(C)c3ccc([C@H]4CCC[C@@H](C(=O)Nc5ccc(C(F)(F)F)cc5F)[C@@H]4C(=O)O)cc3)cc([C@H]3CCCNC3)c2n1C (relative stereo) [Example 269, hydrochloride] . Value?
stdout: 0.794

stdin: Endpoint output: IC50 of COC(=O)[C@H]1C[C@H]1c1ccc([C@H]2CCC[C@@H](C(=O)Nc3ccc(C(F)(F)F)cc3F)[C@@H]2C(=O)O)cc1 (racemic) . Value?
stdout: 2000

stdin: Endpoint output: IC50 of "CN(c1ccc([C@H]2CCC[C@@H](C(=O)Nc3ccc(C(F)(F)F)cc3F)[C@@H]2C(=O)O)cc1)S(=O)(=O)c1ccc2c(ccn2C)c1" . Value?
stdout: 5.01

stdin: Endpoint output: IC50 of Cc1nc2cc(S(=O)(=O)N(C)c3ccc([C@@H]4C[C@H](OCC5CCOCC5)C[C@H](C(=O)Nc5ccc(C(F)(F)F)cc5F)[C@H]4C(=O)O)cc3)ccc2n1C (stereo in doubt) . Value?
stdout: 1580

stdin: Endpoint output: IC50 of CC(=O)N1C[C@H](C(=O)Nc2ccc(C(F)(F)F)cc2F)[C@@H](C(=O)O)[C@H](c2ccc(N(C)S(=O)(=O)c3ccc4c(c3)nc(C)n4C)cc2)C1 (stereo in doubt) . Value?
stdout: 200

stdin: Endpoint output: IC50 of "CN1CCC[C@@H](c2cccc(S(=O)(=O)N(C)c3ccc([C@H]4CCC[C@@H](C(=O)Nc5ccc(C(F)(F)F)cc5F)[C@@H]4C(=O)O)cc3)c2)C1" . Value?
stdout: 1.58

stdin: Endpoint output: IC50 of O=C(O)[C@@H]1[C@@H](c2ccc([C@H]3CC34CCOCC4)cc2)CCC[C@H]1C(=O)Nc1ccc(C(F)(F)F)cc1F (racemic) . Value?
stdout: 50.1

stdin: Endpoint output: IC50 of COC12CC(CO[C@@H]3C[C@H](C(=O)Nc4ccc(C(F)(F)F)cc4F)[C@@H](C(=O)O)[C@H](c4ccc(N(C)S(=O)(=O)c5ccc6c(c5)nc(C)n6C)cc4)C3)(C1)C2 (relative stereo) . Value?
stdout: 251

stdin: Endpoint output: IC50 of "Cc1cc(-c2ccc([C@H]3CCC[C@@H](C(=O)Nc4ccc(C(F)(F)F)cc4F)[C@@H]3C(=O)O)cc2)cs1" . Value?
stdout: 10

stdin: Endpoint output: IC50 of "CN(c1ccc([C@H]2CCC[C@@H](C(=O)Nc3ccc(C(F)(F)F)cc3F)[C@@H]2C(=O)O)cc1)S(=O)(=O)c1ccc2scnc2c1" . Value?
stdout: 5.01
